Tested on: T-24
Assay: Compound was tested for its inhibitory effect on the growth of T24 tumor cell line from bladder.
Assay type: functional, cell-based
Details: Homo sapiens
Experimental Readout: IC50 (µM)
Give bare numbers, in µM.

Worked set:
C#C[C@]1(O)[C@@H](CO)O[C@@H](n2ccc(=O)[nH]c2=O)[C@@H]1O    0.034
O=c1[nH]c(=O)n([C@H]2C[C@H](O)[C@@H](CO)O2)cc1F [FLOXURIDINE]    0.12
O=c1[nH]c(=O)n([C@@H]2O[C@H](CO)[C@@H](O)[C@H]2O)cc1F [5-FLUOROURIDINE]    0.014

Continue with the compound presented below.
Task: What value of measured IC50 is listed for O=c1[nH]cc(F)c(=O)[nH]1 [FLUOROURACIL] ?
Result: 22

====

System: COLO 320DM
Assay: Compound was tested for its inhibitory effect on the growth of COLO 320DM tumor cell line from colon.
Type: functional, cell-based
Conditions: Homo sapiens
Assignment: determine reported IC50 for the given compounds.

Record excerpt, results attached:
O=c1[nH]c(=O)n([C@@H]2O[C@H](CO)[C@@H](O)[C@H]2O)cc1F    5.4 nM
O=c1[nH]c(=O)n([C@H]2C[C@H](O)[C@@H](CO)O2)cc1F    650 nM
O=c1[nH]cc(F)c(=O)[nH]1    1100 nM

Proceed to the following item.
Task: May I ask what IC50 has been recorded for C#C[C@]1(O)[C@@H](CO)O[C@@H](n2ccc(=O)[nH]c2=O)[C@@H]1O ?
Result: 60 nM

====

Tested on: HT-1080
Assay: Compound was tested for its inhibitory effect on the growth of HT1080 sarcoma tumor cell line.
Format: functional, cell-based
Conditions: Homo sapiens
Assignment: determine reported IC50 for the given compounds.
Numbers only, in nM.

# example entries with known answers
O=c1[nH]c(=O)n([C@H]2C[C@H](O)[C@@H](CO)O2)cc1F [FLOXURIDINE]    120
O=c1[nH]c(=O)n([C@@H]2O[C@H](CO)[C@@H](O)[C@H]2O)cc1F [5-FLUOROURIDINE]    41

Now look at this one.
Task: # get_value(readout='IC50', item= C#C[C@]1(O)[C@@H](CO)O[C@@H](n2ccc(=O)[nH]c2=O)[C@@H]1O )
Result: 24

====

I'd be grateful if you could share measured IC50 for these entries.
Test system: PANC-1
Test: Compound was tested for its inhibitory effect on the growth of PANC-1 tumor cell line from pancreas.
Type: functional, cell-based
Conditions: Homo sapiens
One number for each entry, in µM.

C#C[C@]1(O)[C@@H](CO)O[C@@H](n2ccc(=O)[nH]c2=O)[C@@H]1O    11

Below: the item to evaluate.
Task: GET /values?readout=IC50&item= O=c1[nH]c(=O)n([C@@H]2O[C@H](CO)[C@@H](O)[C@H]2O)cc1F
Result: 11
